- STUDY TARGET: Nuclear receptor subfamily 1 group I member 2 (Homo sapiens)
- EXPERIMENT NOTES: Human pregnane X receptor (PXR) small molecule agonists, qHTS assay (AID 1346982); further: nearly all actives have a fitted effect of over 35% in size; further: potency means the concentration at half of the fitted maximal effect
- ASSAY CONDITIONS: PXR-Luc HepG2, CYP3A4 luciferase reporter, 24 h; series mostly up to 92.4 µM
Results filed as inconclusive are left out. Calls of active or inactive are those of the source. The call rests on the fitted dose curve; in most records, active means well fitted activation curve with a large enough effect in the repeat runs; inconclusive means weak or mixed curves; inactive means no such curve, though single readings can be large or run the other way.
QUANTITY MEASURED: Potency

Here's what some known entries look like.
[[record]]
molecule = "C=CCOC(N)=O"
study_target = "Nuclear receptor subfamily 1 group I member 2 (Homo sapiens)"
assay_result = "inactive"

[[record]]
molecule = "O=[N+]([O-])c1ccc2ccc3cccc4ccc1c2c34"
study_target = "Nuclear receptor subfamily 1 group I member 2 (Homo sapiens)"
assay_result = "21.7 µM (active)"

[[record]]
molecule = "CN(C)C1CSSSC1"
study_target = "Nuclear receptor subfamily 1 group I member 2 (Homo sapiens)"
assay_result = "61.1 µM (active)"

[[record]]
molecule = "CC(C)CC(C)N (configuration not stated)"
study_target = "Nuclear receptor subfamily 1 group I member 2 (Homo sapiens)"
assay_result = "inactive"

[[record]]
molecule = "COS(=O)(=O)c1ccc(C)cc1"
study_target = "Nuclear receptor subfamily 1 group I member 2 (Homo sapiens)"
assay_result = "inactive"

[[record]]
molecule = "Clc1ccc(CSC(Cn2ccnc2)c2ccc(Cl)cc2Cl)cc1 (configuration not stated)"
study_target = "Nuclear receptor subfamily 1 group I member 2 (Homo sapiens)"
assay_result = "9.44 µM (active)"


--- query ---
# query: Potency | item "O=C(Nc1ccc2[nH]ccc2c1)c1cc2cc(F)ccc2n1Cc1cccc(F)c1" | system: Nuclear receptor subfamily 1 group I member 2 (Homo sapiens)
24.3 µM (active)

----------
- STUDY TARGET: Vitamin D3 receptor (Homo sapiens)
- EXPERIMENT NOTES: qHTS assay to identify small molecule agonists of the vitamin D receptor (VDR) signaling pathway (AID 743222)
- ASSAY CONDITIONS: HEK293T VDR-UAS-bla, beta-lactamase FRET ratio, 16 h; series mostly up to 63.5 µM
Inconclusive results are not listed. Activity calls are given as the source filed them. Calls follow the shape of the full dose curve.
Result category, one only: active, inactive

Observe how each entry below is paired with its result.
[[record]]
molecule = "CCOP(=O)(NC(C)C)Oc1ccc(SC)c(C)c1 (stereo unspecified)"
study_target = "Vitamin D3 receptor (Homo sapiens)"
qualitative_label = "inactive"

[[record]]
molecule = "ClC(Cl)=C(c1ccc(Cl)cc1)c1ccc(Cl)cc1"
study_target = "Vitamin D3 receptor (Homo sapiens)"
qualitative_label = "inactive"

[[record]]
molecule = "Clc1ccc(CO/N=C(\\Cn2ccnc2)c2ccc(Cl)cc2Cl)c(Cl)c1"
study_target = "Vitamin D3 receptor (Homo sapiens)"
qualitative_label = "inactive"

[[record]]
molecule = "CN(C)CCc1c[nH]c2cccc(O)c12"
study_target = "Vitamin D3 receptor (Homo sapiens)"
qualitative_label = "inactive"


Dear colleague, could you share the recorded outcome for "ClCc1ccc(Cl)cc1Cl" when you have a moment?
inactive

Would you mind doing "CN(C)C1CSSSC1" as well?
inactive

Would you mind doing "CCCCCCCCCBr" as well?
inactive

Would you mind doing CC1(C)C(/C=C(\Cl)C(F)(F)F)C1C(=O)OC(C#N)c1cccc(Oc2ccccc2)c1 (stereo unspecified) as well?
inactive

----------
- STUDY TARGET: Nuclear receptor subfamily 1 group I member 2 (Homo sapiens) (UniProt O75469)
- Sequence (O75469 whole entry, looked up): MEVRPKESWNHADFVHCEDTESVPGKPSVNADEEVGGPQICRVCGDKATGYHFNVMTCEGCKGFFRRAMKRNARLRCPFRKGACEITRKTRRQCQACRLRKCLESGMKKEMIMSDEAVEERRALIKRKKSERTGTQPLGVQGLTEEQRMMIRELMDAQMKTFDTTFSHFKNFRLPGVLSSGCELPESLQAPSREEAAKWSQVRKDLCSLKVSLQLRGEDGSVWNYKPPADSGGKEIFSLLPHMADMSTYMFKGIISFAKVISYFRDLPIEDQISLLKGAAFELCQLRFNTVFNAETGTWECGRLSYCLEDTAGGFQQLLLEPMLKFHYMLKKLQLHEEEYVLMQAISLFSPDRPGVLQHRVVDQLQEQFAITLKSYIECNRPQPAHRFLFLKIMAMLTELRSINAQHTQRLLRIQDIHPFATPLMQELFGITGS
- EXPERIMENT NOTES: Human pregnane X receptor (PXR) small molecule agonists, qHTS assay (AID 1346982); further: nearly all actives have a fitted effect of over 35% in size
- ASSAY CONDITIONS: PXR-Luc HepG2, CYP3A4 luciferase reporter, 24 h; series mostly up to 92.4 µM
Results filed as inconclusive are left out. Activity calls are given as the source filed them. The call rests on the fitted dose curve; in most records, active means well fitted activation curve with a large enough effect in the repeat runs; inconclusive means weak or mixed curves; inactive means no such curve, though single readings can be large or run the other way.
Result category, one only: 1.0 (active), 0.0 (inactive)

Dear colleague, could you share the recorded outcome for "N#Cc1c(-c2ccc(Cl)cc2)[nH]c(C(F)(F)F)c1Br" when you have a moment?
1.0

Would you mind doing "BrC(Br)Br" as well?
0.0

Would you mind doing "Cc1ccc(CCl)cc1" as well?
0.0

Would you mind doing "C[C@@H](Oc1ccc(Cl)cc1Cl)C(=O)O" as well?
0.0

Would you mind doing "C[C@]12Cc3nonc3C[C@@H]1CC[C@@H]1[C@@H]2CC[C@@]2(C)[C@H]1CC[C@]2(C)O" as well?
1.0

Would you mind doing O=C(O)C1C2CCC(O2)C1C(=O)O (stereo not drawn) as well?
0.0

Would you mind doing CN(CCCC(O)c1cccnc1)N=O (stereo not drawn) as well?
0.0
